Reference source: PubChem BioAssay

Quick reference for fluorescence slope among some molecules
- TARGET DESC: Voltage-gated potassium channel subunit beta-2 (Rattus norvegicus)
- ASSAY NAME: inhibitors of rat Kvbeta2 reductase activity – biochemical, NADPH fluorescence, primary screen (AID 622);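 also: slope of raw intensity against log time taken from 70 to 1610 s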
- MEASUREMENT PARAMETERS: recombinant KvBeta, 4-cyanobenzaldehyde reduction, at 10 µM, hits give high values
MEASUREMENT KIND: fluorescence slope

{"columns": ["MOLECULE", "TARGET DESC", "MEASUREMENT KIND", "NUMBER"],
 "data": [
  ["COc1ccc2[nH]cc(CCN(C)C)c2c1", "Voltage-gated potassium channel subunit beta-2 (Rattus norvegicus)", "fluorescence slope", -0.516],
  ["CCCCCCn1c(O)c(C=NC2CCN(Cc3ccccc3)CC2)c(=O)[nH]c1=O", "Voltage-gated potassium channel subunit beta-2 (Rattus norvegicus)", "fluorescence slope", -0.332],
  ["CCOc1cc2[nH]c(=S)n(CCCC(=O)N3CCC4(CC3)OCCO4)c(=O)c2cc1OCC", "Voltage-gated potassium channel subunit beta-2 (Rattus norvegicus)", "fluorescence slope", -0.464],
  ["O=c1[nH]c(=O)n(Cc2ccccc2)c(O)c1C=NCCN1CCNCC1", "Voltage-gated potassium channel subunit beta-2 (Rattus norvegicus)", "fluorescence slope", -0.51],
  ["CCOC(=O)C1CCCCC12C(C#N)=C(N)Oc1n[nH]c(C)c12 (stereo unspecified)", "Voltage-gated potassium channel subunit beta-2 (Rattus norvegicus)", "fluorescence slope", -0.637],
  ["CNCCc1nc(N)n[nH]1", "Voltage-gated potassium channel subunit beta-2 (Rattus norvegicus)", "fluorescence slope", -0.507],
  ["O=C(Cn1ncc2c3ccccc3n(Cc3ccc(F)cc3)c2c1=O)N1CCC2(CC1)OCCO2", "Voltage-gated potassium channel subunit beta-2 (Rattus norvegicus)", "fluorescence slope", -0.295],
  ["O=c1[nH]c(=O)n(CCc2ccc(F)cc2)c(O)c1C=NCCCn1ccnc1", "Voltage-gated potassium channel subunit beta-2 (Rattus norvegicus)", "fluorescence slope", -0.589],
  ["Oc1ccc(C2NCc3ccccc3-n3cccc32)cc1Cl (stereo unspecified)", "Voltage-gated potassium channel subunit beta-2 (Rattus norvegicus)", "fluorescence slope", -0.46],
  ["CN(C)[C@@H]1C(=O)C(C(N)=O)=C(O)[C@@]2(O)C(=O)C3=C(O)c4c(O)cccc4[C@@](C)(O)[C@H]3[C@H](O)[C@@H]12", "Voltage-gated potassium channel subunit beta-2 (Rattus norvegicus)", "fluorescence slope", -0.459],
  ["CCCCOCCCn1c(N)c(C(=O)OC(C)COC)c2nc3ccccc3nc21 (stereo unspecified)", "Voltage-gated potassium channel subunit beta-2 (Rattus norvegicus)", "fluorescence slope", -0.0435]
]}
